- Tested on: 883617-216-R-J1-PDC complex spheroid viability
- Test Summary: Anticancer human tumor 883617-216-R-J1-PDC patient-derived bladder carcinoma cell line growth inhibition [POLQ]
- Run Parameters: second compound 1 µM; first compound 1 µM; stronger effect = lower value
- Method: Multicellular complex tumor spheroid response to Polymerase (POL) inhibitors (novobiocin, ART-558, RP6685) in combination with a variety of drugs and investigational agents in selected tumor cell lines The POL inhibitors (novobiocin, ART-558, and RP6685) were evaluated both individually and in combination with standard of care and investigational anticancer small molecules within a complex spheroid model of solid tumors. . […]
Exam item: assign Satisfied to entries whose viability, T/C is below 70% and Not satisfied to entries at or above 70%. Note that a value of exactly 70% receives Not satisfied.

Please review the entries below; each comes with its answer.
COc1ccc([C@@H](O)c2cc(-c3ncnc4cc(N5CCOCC5)ccc34)c(F)cc2Cl)nn1 + COC1C(OC(N)=O)C(O)C(Oc2ccc3c(O)c(NC(=O)c4ccc(O)c(CC=C(C)C)c4)c(=O)oc3c2C)OC1(C)C    Satisfied
CC(C)n1c(=O)n(C)c2cnc3cc(F)c(-c4ccc(OCCCN5CCCCC5)nc4)cc3c21 + COC1C(OC(N)=O)C(O)C(Oc2ccc3c(O)c(NC(=O)c4ccc(O)c(CC=C(C)C)c4)c(=O)oc3c2C)OC1(C)C    Not satisfied
CC1COCCN1c1cc(C2(S(C)(=N)=O)CC2)nc(-c2ccnc3[nH]ccc23)n1 (stereo not given) + Nc1ccc(C#CCN(C(=O)Cc2ncc(C(F)(F)F)cc2C(F)(F)F)c2ccc(F)cc2)nn1    Satisfied
CC1COCCN1c1cc(C2(O)CC3CCC(C2)O3)c2cnn(-c3ccn[nH]3)c2n1 (stereo not given) + COC1C(OC(N)=O)C(O)C(Oc2ccc3c(O)c(NC(=O)c4ccc(O)c(CC=C(C)C)c4)c(=O)oc3c2C)OC1(C)C    Satisfied

Ask | Below 70% on viability, T/C? Entry COc1cccc(OCCCN)c1-c1cc(Nc2cnc(C#N)cn2)n[nH]1 + Cc1cccc(N(C)C(=O)C2C(O)CCN2c2nc(C)cc(C(F)(F)F)c2C#N)c1
Reply | Satisfied

---

- System: 883617-216-R-J1-PDC complex spheroid viability
- Test Summary: Anticancer human tumor 883617-216-R-J1-PDC cell line growth inhibition [POLQ];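 note: spheroids exposed to compounds for seven days before readout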;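 for viability, T/C: 100% = DMSO vehicle control viability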
- Run Parameters: second compound 0.316 µM; first compound 0.01 µM; stronger effect = lower value
Parameter Measured: viability, T/C

Cn1ncnc1[C@H]1c2n[nH]c(=O)c3cc(F)cc(c23)N[C@@H]1c1ccc(F)cc1 + COC1C(OC(N)=O)C(O)C(Oc2ccc3c(O)c(NC(=O)c4ccc(O)c(CC=C(C)C)c4)c(=O)oc3c2C)OC1(C)C    82.9%
CCc1c2c(nc3ccc(O)cc13)-c1cc3c(c(=O)n1C2)COC(=O)[C@]3(O)CC + COC1C(OC(N)=O)C(O)C(Oc2ccc3c(O)c(NC(=O)c4ccc(O)c(CC=C(C)C)c4)c(=O)oc3c2C)OC1(C)C    62.3%

Each molecule below has a reported value. Please supply its viability, T/C.
1. CCc1c2c(nc3ccc(O)cc13)-c1cc3c(c(=O)n1C2)COC(=O)[C@]3(O)CC + Cc1cccc(N(C)C(=O)C2C(O)CCN2c2nc(C)cc(C(F)(F)F)c2C#N)c1
2. C=CCn1c(=O)c2cnc(Nc3ccc(N4CCN(C)CC4)cc3)nc2n1-c1cccc(C(C)(C)O)n1 + Cc1cccc(N(C)C(=O)C2C(O)CCN2c2nc(C)cc(C(F)(F)F)c2C#N)c1
3. COc1cccc(OCCCN)c1-c1cc(Nc2cnc(C#N)cn2)n[nH]1 + Cc1cccc(N(C)C(=O)C2C(O)CCN2c2nc(C)cc(C(F)(F)F)c2C#N)c1
4. COc1cccc(OCCCN)c1-c1cc(Nc2cnc(C#N)cn2)n[nH]1 + COC1C(OC(N)=O)C(O)C(Oc2ccc3c(O)c(NC(=O)c4ccc(O)c(CC=C(C)C)c4)c(=O)oc3c2C)OC1(C)C
5. C=CCn1c(=O)c2cnc(Nc3ccc(N4CCN(C)CC4)cc3)nc2n1-c1cccc(C(C)(C)O)n1 + Nc1ccc(C#CCN(C(=O)Cc2ncc(C(F)(F)F)cc2C(F)(F)F)c2ccc(F)cc2)nn1

Reply |
["66.2%", "99.3%", "81.8%", "67.3%", "115%"]

---

Would you mind telling me the reported pIC50 of each entry?
- Test system: 883617-216-R-J1-PDC complex spheroid viability
- Test Summary: Anticancer human tumor 883617-216-R-J1-PDC cell line growth inhibition [POLQ];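 note: spheroids exposed to compounds for seven days before readout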
- Run Parameters: curve of first compound; second compound 0.0316 µM
- Protocol: Multicellular complex tumor spheroid response to Polymerase (POL) inhibitors (novobiocin, ART-558, RP6685) in combination with a variety of drugs and investigational agents in selected tumor cell lines The POL inhibitors (novobiocin, ART-558, and RP6685) were evaluated both individually and in combination with standard of care and investigational anticancer small molecules within a complex spheroid model of solid tumors. . […]
pIC50: −log10 of the molar value.

Examples from the recorded data:
CC(C)n1c(=O)n(C)c2cnc3cc(F)c(-c4ccc(OCCCN5CCCCC5)nc4)cc3c21 + Nc1ccc(C#CCN(C(=O)Cc2ncc(C(F)(F)F)cc2C(F)(F)F)c2ccc(F)cc2)nn1    < 5.00
COc1cccc2c1C(=O)c1c(O)c3c(c(O)c1C2=O)CC(O)(C(=O)CO)CC3OC1CC(N)C(O)C(C)O1 (stereo not drawn) + COC1C(OC(N)=O)C(O)C(Oc2ccc3c(O)c(NC(=O)c4ccc(O)c(CC=C(C)C)c4)c(=O)oc3c2C)OC1(C)C    6.73

We next turn to a different compound, shown below.
Ask | Suppose we examine the compound CC[C@@]1(O)C(=O)OCc2c1cc1n(c2=O)Cc2cc3c(CN(C)C)c(O)ccc3nc2-1 + Cc1cccc(N(C)C(=O)C2C(O)CCN2c2nc(C)cc(C(F)(F)F)c2C#N)c1 ; what pIC50 value has been reported?
Reply | < 7.00

---

Would you mind telling me the reported IC50 of each entry?
- Test system: 883617-216-R-J1-PDC complex spheroid viability
- Test Summary: Anticancer human tumor 883617-216-R-J1-PDC cell line growth inhibition [POLQ];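 note: spheroids exposed to compounds for seven days before readout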
- Run Parameters: curve of first compound; second compound 0.0316 µM

Examples from the recorded data:
CCc1cc2c(N3CCc4c(cc(Cn5ccnc5)cc4-c4cn(C)nc4C(F)(F)F)C3=O)ccnc2c(OC)n1 + COC1C(OC(N)=O)C(O)C(Oc2ccc3c(O)c(NC(=O)c4ccc(O)c(CC=C(C)C)c4)c(=O)oc3c2C)OC1(C)C    > 10 µM
O=c1[nH]cc(F)c(=O)[nH]1 + Cc1cccc(N(C)C(=O)C2C(O)CCN2c2nc(C)cc(C(F)(F)F)c2C#N)c1    > 10 µM
COc1ccc([C@@H](O)c2cc(-c3ncnc4cc(N5CCOCC5)ccc34)c(F)cc2Cl)nn1 + COC1C(OC(N)=O)C(O)C(Oc2ccc3c(O)c(NC(=O)c4ccc(O)c(CC=C(C)C)c4)c(=O)oc3c2C)OC1(C)C    2.9 µM

Each molecule below has a reported value. Please supply its IC50.
1. O=c1[nH]cc(F)c(=O)[nH]1 + Nc1ccc(C#CCN(C(=O)Cc2ncc(C(F)(F)F)cc2C(F)(F)F)c2ccc(F)cc2)nn1
2. CC(C)n1c(=O)n(C)c2cnc3cc(F)c(-c4ccc(OCCCN5CCCCC5)nc4)cc3c21 + Cc1cccc(N(C)C(=O)C2C(O)CCN2c2nc(C)cc(C(F)(F)F)c2C#N)c1

Reply |
["> 10 µM", "> 10 µM"]

---

- System: 883617-216-R-J1-PDC complex spheroid viability
- Test Summary: Anticancer human tumor 883617-216-R-J1-PDC cell line growth inhibition [POLQ];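 note: spheroids exposed to compounds for seven days before readout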;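 for viability, T/C: 100% = DMSO vehicle control viability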
- Run Parameters: second compound 10 µM; first compound 10 µM; stronger effect = lower value
- Method: Multicellular complex tumor spheroid response to Polymerase (POL) inhibitors (novobiocin, ART-558, RP6685) in combination with a variety of drugs and investigational agents in selected tumor cell lines The POL inhibitors (novobiocin, ART-558, and RP6685) were evaluated both individually and in combination with standard of care and investigational anticancer small molecules within a complex spheroid model of solid tumors. . […]
Parameter Measured: viability, T/C

Examples from the recorded data:
COc1ccc([C@@H](O)c2cc(-c3ncnc4cc(N5CCOCC5)ccc34)c(F)cc2Cl)nn1 + COC1C(OC(N)=O)C(O)C(Oc2ccc3c(O)c(NC(=O)c4ccc(O)c(CC=C(C)C)c4)c(=O)oc3c2C)OC1(C)C    34.2%
CCc1cc2c(N3CCc4c(cc(Cn5ccnc5)cc4-c4cn(C)nc4C(F)(F)F)C3=O)ccnc2c(OC)n1 + Nc1ccc(C#CCN(C(=O)Cc2ncc(C(F)(F)F)cc2C(F)(F)F)c2ccc(F)cc2)nn1    57.8%

We next turn to a different compound, shown below.
Ask | Suppose we examine the compound COc1cc(C2c3cc4c(cc3C(OC3OC5COC(C)OC5C(O)C3O)C3COC(=O)C23)OCO4)cc(OC)c1O (stereo not drawn) + Nc1ccc(C#CCN(C(=O)Cc2ncc(C(F)(F)F)cc2C(F)(F)F)c2ccc(F)cc2)nn1 ; what viability, T/C value has been reported?
Reply | 70.5%
